Tested on: Escherichia coli AG100, AG112 and derived fluoroquinolone-resistant mutants with ΔacrAB
protocol text: MIC by broth microdilution, AcrAB-deleted strains
Assay type: cell-based
condition info: Escherichia coli, strain 2-AG112 (2′-AG112), ΔacrAB
measurement type: MIC (µg/mL)
Only the number, expressed in µg/mL, is required.

Below are worked cases with known answers.
>  <compound>
O=C(N[C@H](CO)[C@H](O)c1ccc([N+](=O)[O-])cc1)C(Cl)Cl [CML, chloramphenicol]

>  <measurement units>
µg/mL

>  <MIC>
1

$$$$
>  <compound>
CO[C@@]1(NC(=O)Cc2cccs2)C(=O)N2C(C(=O)O)=C(COC(N)=O)CS[C@@H]21 [CFOX, cefoxitin]

>  <measurement units>
µg/mL

>  <MIC>
0.5

$$$$

Please look at the following compound next.
Please tell me: MIC of O=C(O)c1cn(C2CC2)c2cc(N3CCNCC3)c(F)cc2c1=O [CIP, ciprofloxacin] , system Escherichia coli AG100, AG112 and derived fluoroquinolone-resistant mutants with ΔacrAB?
0.03

---

Test system: Escherichia coli K-12 AG100, its Mar mutant AG112 and derived fluoroquinolone-resistant mutants (acrAB+)
protocol text: MIC by broth microdilution, acrAB+ strains
Format: cell-based
condition info: Escherichia coli, strain 1-AG112 (1′-AG112), acrAB+; read-out: MIC
Listing: MIC of selected molecules
Express the result in µg/mL but write the number alone.

>  <molecule>
CC1COc2c(N3CCN(C)CC3)c(F)cc3c(=O)c(C(=O)O)cn1c23 (stereo not shown) [OFL, ofloxacin]

>  <MIC [µg/mL]>
1

$$$$
>  <molecule>
CN(C)[C@@H]1C(O)=C(C(N)=O)C(=O)[C@@]2(O)C(O)=C3C(=O)c4c(O)cccc4[C@@](C)(O)[C@H]3C[C@@H]12 [TET, tetracycline]

>  <MIC [µg/mL]>
4

$$$$
>  <molecule>
N[C@@H]1[C@H]2CN(c3nc4c(cc3F)c(=O)c(C(=O)O)cn4-c3ccc(F)cc3F)C[C@@H]12 [TVA, trovafloxacin]

>  <MIC [µg/mL]>
0.5

$$$$
>  <molecule>
C[C@@H]1CN(c2c(F)c(N)c3c(=O)c(C(=O)O)cn(C4CC4)c3c2F)C[C@H](C)N1 [SPX, sparfloxacin]

>  <MIC [µg/mL]>
0.25

$$$$

// MIC lookup, key: O=C(O)c1cn(C2CC2)c2cc(N3CCNCC3)c(F)cc2c1=O [CIP, ciprofloxacin]
0.5

What value of measured MIC is listed for CO[C@@]1(NC(=O)Cc2cccs2)C(=O)N2C(C(=O)O)=C(COC(N)=O)CS[C@@H]21 [CFOX, cefoxitin] ?
16

Please look up its MIC: O=C(N[C@H](CO)[C@H](O)c1ccc([N+](=O)[O-])cc1)C(Cl)Cl [CML, chloramphenicol]
32

---

In this section, each of the molecules is paired with its reported MIC.
Tested on: Escherichia coli AG100, AG112 and derived fluoroquinolone-resistant mutants with ΔacrAB
protocol text: MIC by broth microdilution, AcrAB-deleted strains
Type: cell-based
condition info: Escherichia coli, strain 1-AG100, ΔacrAB
Write the number in µg/mL without appending the unit.

Worked set:
>  <molecule>
CO[C@@]1(NC(=O)Cc2cccs2)C(=O)N2C(C(=O)O)=C(COC(N)=O)CS[C@@H]21 [CFOX, cefoxitin]

>  <tgt>
Escherichia coli AG100, AG112 and derived fluoroquinolone-resistant mutants with ΔacrAB

>  <MIC [µg/mL]>
0.5

$$$$
>  <molecule>
CC1COc2c(N3CCN(C)CC3)c(F)cc3c(=O)c(C(=O)O)cn1c23 (stereo not shown) [OFL, ofloxacin]

>  <tgt>
Escherichia coli AG100, AG112 and derived fluoroquinolone-resistant mutants with ΔacrAB

>  <MIC [µg/mL]>
0.06

$$$$
>  <molecule>
O=C(O)c1cn(C2CC2)c2cc(N3CCNCC3)c(F)cc2c1=O [CIP, ciprofloxacin]

>  <tgt>
Escherichia coli AG100, AG112 and derived fluoroquinolone-resistant mutants with ΔacrAB

>  <MIC [µg/mL]>
0.06

$$$$
>  <molecule>
N[C@@H]1[C@H]2CN(c3nc4c(cc3F)c(=O)c(C(=O)O)cn4-c3ccc(F)cc3F)C[C@@H]12 [TVA, trovafloxacin]

>  <tgt>
Escherichia coli AG100, AG112 and derived fluoroquinolone-resistant mutants with ΔacrAB

>  <MIC [µg/mL]>
0.06

$$$$
>  <molecule>
O=C(N[C@H](CO)[C@H](O)c1ccc([N+](=O)[O-])cc1)C(Cl)Cl [CML, chloramphenicol]

>  <tgt>
Escherichia coli AG100, AG112 and derived fluoroquinolone-resistant mutants with ΔacrAB

>  <MIC [µg/mL]>
1

$$$$

Alright, here's another molecule for you.
Would you mind telling me what MIC value was observed for CN(C)[C@@H]1C(O)=C(C(N)=O)C(=O)[C@@]2(O)C(O)=C3C(=O)c4c(O)cccc4[C@@](C)(O)[C@H]3C[C@@H]12 [TET, tetracycline] ?
1
